Provide the recorded Percentage of the formation of covalent complex with DCN1 protein for the entries that follow.
testedSystem: DCN1 (Homo sapiens, UniProt Q96GG9)
Sequence (Q96GG9 58-259 limits assumed): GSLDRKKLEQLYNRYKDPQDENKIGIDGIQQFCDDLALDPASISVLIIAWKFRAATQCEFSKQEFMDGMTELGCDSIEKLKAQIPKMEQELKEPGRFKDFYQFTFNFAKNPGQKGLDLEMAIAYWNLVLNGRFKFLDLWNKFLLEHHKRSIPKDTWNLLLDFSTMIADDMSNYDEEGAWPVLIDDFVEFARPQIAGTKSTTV
protocolText: Intact-protein mass spectrometric analysis of covalent complex formation, Method A
Type: binding
conditionContext: 10 min incubation, 37 °C, 1.2-fold excess inhibitor
Lab note: write values as number then unit, every time.

State Percentage of the formation of covalent complex with DCN1 protein (DCN1 (Homo sapiens, UniProt Q96GG9)) of CCC(=O)N[C@@H](Cc1nc2ccc(C(C)C)cc2s1)C(=O)N[C@H](CNC(=O)/C=C/CN1CCOCC1)C1CCCCC1 .
0%

Quote Percentage of the formation of covalent complex with DCN1 protein with test system DCN1 (Homo sapiens, UniProt Q96GG9) for C=C(CN1CCOCC1)C(=O)NC[C@@H](NC(=O)[C@H](Cc1nc2ccc(C(C)C)cc2s1)NC(=O)CC)C1CCCCC1
100%

Give the observed Percentage of the formation of covalent complex with DCN1 protein of C=CC(=O)NC[C@@H](NC(=O)[C@H](Cc1nc2ccc(C(C)C)cc2s1)NC(=O)CC)C1CCCCC1 for DCN1 (Homo sapiens, UniProt Q96GG9).
0%

Please report the measured Percentage of the formation of covalent complex with DCN1 protein for CCC(=O)N[C@@H](Cc1nc2ccc(C(C)C)cc2s1)C(=O)N[C@H](CNC(=O)CCl)C1CCCCC1 tested on DCN1 (Homo sapiens, UniProt Q96GG9).
0%

Tell me its Percentage of the formation of covalent complex with DCN1 protein on DCN1 (Homo sapiens, UniProt Q96GG9): C=C(CN(C)C)C(=O)NC[C@@H](NC(=O)[C@H](Cc1nc2ccc(C(C)C)cc2s1)NC(=O)CC)C1CCCCC1
100%

Please look at C=C(Cn1ccnc1)C(=O)NC[C@@H](NC(=O)[C@H](Cc1nc2ccc(C(C)C)cc2s1)NC(=O)CC)C1CCCCC1 and tell me its recorded Percentage of the formation of covalent complex with DCN1 protein on DCN1 (Homo sapiens, UniProt Q96GG9).
80%

Please respond with reported Percentage of the formation of covalent complex with DCN1 protein (system DCN1 (Homo sapiens, UniProt Q96GG9)) for CCC(=O)N[C@@H](Cc1nc2ccc(C(C)C)cc2s1)C(=O)N[C@H](CNC(=O)/C=C/CN(C)C)C1CCCCC1 .
0%

----------
For each entry below, report its viability at 72 h value.
protocolText: Cell viability assay (WST-8), HCT116
Assay type: cell-based, human
conditionContext: human, HCT116 cells, conc 30, 72 h, replicates; read-out: cell viability relative to control
Unit % implied. Number only.

Return reported viability at 72 h. Input compound: NS(=O)(=O)OC[C@@H]1C[C@@H](n2ccc3c(N[C@H]4CCc5ccccc54)ncnc32)C[C@@H]1O
106

Dear colleague, please send me the reported viability at 72 h for CCC(=O)N[C@@H](Cc1nc2ccc(C(C)C)cc2s1)C(=O)N[C@H](CNC(=O)CCN1CCOCC1)C1CCCCC1 when you can.
90

----------
Assign Percentage of the formation of covalent complex with DCN1 protein to each entry below.
testedSystem: DCN1 (Homo sapiens, UniProt Q96GG9)
protocolText: Intact-protein mass spectrometric analysis of covalent complex formation, Method A
Assay type: binding
conditionContext: 60 min (1 h) incubation, 37 °C
Please state the value followed by its unit.

Note down Percentage of the formation of covalent complex with DCN1 protein recorded for CCC(=O)N[C@@H](Cc1nc2ccc(C(C)C)cc2s1)C(=O)N[C@H](CNC(=O)/C=C/CN1CCOCC1)C1CCCCC1
0%

Please look at this molecule and report its Percentage of the formation of covalent complex with DCN1 protein: CCC(=O)N[C@@H](Cc1nc2ccc(C(C)C)cc2s1)C(=O)N[C@H](CNC(=O)/C=C/CN(C)C)C1CCCCC1
0%

Given C=C(CCN(C)C)C(=O)NC[C@@H](NC(=O)[C@H](Cc1nc2ccc(C(C)C)cc2s1)NC(=O)CC)C1CCCCC1 , respond with its Percentage of the formation of covalent complex with DCN1 protein.
30%
